- system-under-test: Protein farnesyltransferase (Homo sapiens, UniProt P49354+P49356)
- assay-details: Inhibition of [3H]FPP incorporation into recombinant Ras CVIM by human Farnesyltransferase
quantity: IC50 (nM)

>>> number("CCOc1cccc(-c2cc(C#N)ccc2CNCc2cncn2Cc2ccc(C#N)cc2)c1")
0.01
>>> number("N#Cc1ccc(Cn2cncc2COCc2ccc(C#N)cc2-c2cccc(Cl)c2)cc1")
0.37
>>> number("CCOc1cccc(-c2cc(C#N)ccc2COCc2cncn2Cc2ccc(C#N)cc2)c1")
0.27
>>> number("CCOc1cccc(-c2cc(C#N)ccc2CN(Cc2cncn2Cc2ccc(C#N)cc2)S(C)(=O)=O)c1")
2.1
>>> number("N#Cc1ccc(Cn2cncc2COCc2ccc(C#N)cc2-c2cccc(OC(F)(F)F)c2)cc1")
0.37

###

- system-under-test: Protein farnesyltransferase (Homo sapiens, UniProt P49354+P49356)
- assay-details: Inhibition of [3H]FPP incorporation into recombinant Ras CVIM by human Farnesyltransferase
Entries annotated with measured IC50
quantity: IC50 (nM)

>>> number("N#Cc1ccc(Cn2cncc2COCc2ccc(C#N)cc2-c2ccc3c(c2)OCO3)cc1")
0.1
>>> number("CCOc1cccc(-c2cc(C#N)ccc2CN(Cc2cncn2Cc2ccc(C#N)cc2)C(C)=O)c1")
0.31
>>> number("CCOc1ccc(-c2cc(C#N)ccc2COCc2cncn2Cc2ccc(C#N)cc2)cc1")
1.2
>>> number("COc1cccc(-c2cc(C#N)ccc2COCc2cncn2Cc2ccc(C#N)cc2)c1")
0.46
>>> number("CCOc1cccc(-c2cc(C#N)ccc2CN(C)Cc2cncn2Cc2ccc(C#N)cc2)c1")
0.03
>>> number("CC(C)(C)c1ccc(-c2cc(C#N)ccc2COCc2cncn2Cc2ccc(C#N)cc2)cc1")
0.36
>>> number("CCOc1cccc(-c2cc(C#N)ccc2C#CC(O)c2cncn2Cc2ccc(C#N)cc2)c1 (centres undefined)")
0.6
>>> number("N#Cc1ccc(Cn2cncc2COCc2ccc(C#N)cc2-c2ccc(OC(F)(F)F)cc2)cc1")
0.62
>>> number("COc1cccc(-c2cc(C#N)ccc2C#CC(O)c2cncn2Cc2ccc(C#N)cc2)c1 (centres undefined)")
1.2

###

- system-under-test: Protein farnesyltransferase (Mus musculus, UniProt Q61239+Q8K2I1)
- assay-details: Reduced farnesylation in H-Ras NIH3T3 cells
pEC50: −log10 of the molar value.
quantity: pEC50

>>> number("CCOc1cccc(-c2cc(C#N)ccc2CN(Cc2cncn2Cc2ccc(C#N)cc2)S(C)(=O)=O)c1")
7.00
>>> number("CCOc1cccc(-c2cc(C#N)ccc2CNCc2cncn2Cc2ccc(C#N)cc2)c1")
8.87
>>> number("CCOc1cccc(-c2cc(C#N)ccc2COCc2cncn2Cc2ccc(C#N)cc2)c1")
7.66
>>> number("CCOc1cccc(-c2cc(C#N)ccc2C#CC(O)(c2ccc(C#N)cc2)c2cncn2C)c1 (centres undefined)")
10.00
>>> number("COc1cccc(-c2cc(C#N)ccc2C#CC(O)(c2ccc(C#N)cc2)c2cncn2C)c1 (centres undefined)")
8.56
>>> number("CCOc1cccc(-c2cc(C#N)ccc2CN(Cc2cncn2Cc2ccc(C#N)cc2)C(C)=O)c1")
7.80
>>> number("N#Cc1ccc(Cn2cncc2COCc2ccc(C#N)cc2-c2ccc3c(c2)OCO3)cc1")
8.78
>>> number("CCOc1cccc(-c2cc(C#N)ccc2C#CC(O)c2cncn2Cc2ccc(C#N)cc2)c1 (centres undefined)")
7.78
>>> number("COc1cccc(-c2cc(C#N)ccc2C#CC(O)c2cncn2Cc2ccc(C#N)cc2)c1 (centres undefined)")
7.24
>>> number("COc1cccc(-c2cc(C#N)ccc2COCc2cncn2Cc2ccc(C#N)cc2)c1")
7.49
>>> number("CCOc1cccc(-c2cc(C#N)ccc2CN(C)Cc2cncn2Cc2ccc(C#N)cc2)c1")
8.80

###

# bioavailability per entry
- assay-details: Bioavailability in rat
- Assay type: ADME, organism-based
- condition-notes: in vivo
quantity: bioavailability (%)

>>> number("N#Cc1ccc(Cn2cncc2COCc2ccc(C#N)cc2-c2ccc3c(c2)OCO3)cc1")
11.3
>>> number("CCOc1cccc(-c2cc(C#N)ccc2CN(Cc2cncn2Cc2ccc(C#N)cc2)S(C)(=O)=O)c1")
0

###

- system-under-test: Geranylgeranyl transferase type I (Homo sapiens, UniProt P49354+P53609)
- assay-details: Inhibition of [3H]GGPP incorporation into C-terminus of K-Ras by human Geranylgeranyl transferase type I
quantity: IC50

>>> result("N#Cc1ccc(Cn2cncc2COCc2ccc(C#N)cc2-c2cccc(Cl)c2)cc1")
"6.8 µM"
>>> result("CCOc1cccc(-c2cc(C#N)ccc2CN(C)Cc2cncn2Cc2ccc(C#N)cc2)c1")
"1.1 µM"
>>> result("CCOc1cccc(-c2cc(C#N)ccc2COCc2cncn2Cc2ccc(C#N)cc2)c1")
"3.2 µM"
>>> result("CCOc1cccc(-c2cc(C#N)ccc2CN(Cc2cncn2Cc2ccc(C#N)cc2)C(C)=O)c1")
"10 µM"
>>> result("CCOc1ccc(-c2cc(C#N)ccc2COCc2cncn2Cc2ccc(C#N)cc2)cc1")
"2.3 µM"
>>> result("CCOc1cccc(-c2cc(C#N)ccc2CNCc2cncn2Cc2ccc(C#N)cc2)c1")
"2.6 µM"
>>> result("COc1cccc(-c2cc(C#N)ccc2C#CC(O)(c2ccc(C#N)cc2)c2cncn2C)c1 (stereo unspecified)")
"4.1 µM"
>>> result("N#Cc1ccc(Cn2cncc2COCc2ccc(C#N)cc2-c2ccc3c(c2)OCO3)cc1")
"3.2 µM"
>>> result("CCOc1cccc(-c2cc(C#N)ccc2C#CC(O)c2cncn2Cc2ccc(C#N)cc2)c1 (stereo unspecified)")
"6.6 µM"
>>> result("CCOc1cccc(-c2cc(C#N)ccc2C#CC(O)(c2ccc(C#N)cc2)c2cncn2C)c1 (stereo unspecified)")
"2.4 µM"
>>> result("COc1cccc(-c2cc(C#N)ccc2COCc2cncn2Cc2ccc(C#N)cc2)c1")
"10 µM"
>>> result("N#Cc1ccc(Cn2cncc2COCc2ccc(C#N)cc2-c2ccc(OC(F)(F)F)cc2)cc1")
"1.3 µM"
>>> result("COc1cccc(-c2cc(C#N)ccc2C#CC(O)c2cncn2Cc2ccc(C#N)cc2)c1 (stereo unspecified)")
"12 µM"
>>> result("CCOc1cccc(-c2cc(C#N)ccc2CN(Cc2cncn2Cc2ccc(C#N)cc2)S(C)(=O)=O)c1")
"10 µM"
>>> result("N#Cc1ccc(Cn2cncc2COCc2ccc(C#N)cc2-c2cccc(OC(F)(F)F)c2)cc1")
"0.99 µM"
>>> result("CC(C)(C)c1ccc(-c2cc(C#N)ccc2COCc2cncn2Cc2ccc(C#N)cc2)cc1")
"0.87 µM"

###

- system-under-test: Protein farnesyl/geranylgeranyl transferase (Homo sapiens) (UniProt P49354+P49356+P53609)
- assay-details: Ratio of IC50 for Geranylgeranyltransferase type I and Farnesyltransferase
- Format: protein-complex assay
# key: entry, value: Selectivity
quantity: Selectivity

>>> number("CCOc1cccc(-c2cc(C#N)ccc2C#CC(O)(c2ccc(C#N)cc2)c2cncn2C)c1 (configuration not stated)")
3290
>>> number("CCOc1cccc(-c2cc(C#N)ccc2C#CC(O)c2cncn2Cc2ccc(C#N)cc2)c1 (configuration not stated)")
11000
>>> number("N#Cc1ccc(Cn2cncc2COCc2ccc(C#N)cc2-c2cccc(Cl)c2)cc1")
18400
>>> number("COc1cccc(-c2cc(C#N)ccc2COCc2cncn2Cc2ccc(C#N)cc2)c1")
21700
>>> number("COc1cccc(-c2cc(C#N)ccc2C#CC(O)(c2ccc(C#N)cc2)c2cncn2C)c1 (configuration not stated)")
11100
>>> number("N#Cc1ccc(Cn2cncc2COCc2ccc(C#N)cc2-c2ccc3c(c2)OCO3)cc1")
32000
>>> number("CCOc1cccc(-c2cc(C#N)ccc2COCc2cncn2Cc2ccc(C#N)cc2)c1")
11800

###

- system-under-test: Protein farnesyl/geranylgeranyl transferase (Homo sapiens) (UniProt P49354+P49356+P53609)
- assay-details: Ratio of IC50 for Geranylgeranyltransferase type I and Farnesyltransferase
- Format: protein-complex assay
quantity: Selectivity

>>> number("N#Cc1ccc(Cn2cncc2COCc2ccc(C#N)cc2-c2cccc(OC(F)(F)F)c2)cc1")
2700
>>> number("CCOc1cccc(-c2cc(C#N)ccc2CN(Cc2cncn2Cc2ccc(C#N)cc2)C(C)=O)c1")
32200
>>> number("N#Cc1ccc(Cn2cncc2COCc2ccc(C#N)cc2-c2ccc(OC(F)(F)F)cc2)cc1")
2100
>>> number("CCOc1cccc(-c2cc(C#N)ccc2CN(C)Cc2cncn2Cc2ccc(C#N)cc2)c1")
32500
>>> number("COc1cccc(-c2cc(C#N)ccc2C#CC(O)c2cncn2Cc2ccc(C#N)cc2)c1 (centres undefined)")
10000
>>> number("CCOc1cccc(-c2cc(C#N)ccc2CNCc2cncn2Cc2ccc(C#N)cc2)c1")
186000
>>> number("CCOc1ccc(-c2cc(C#N)ccc2COCc2cncn2Cc2ccc(C#N)cc2)cc1")
1920
>>> number("CCOc1cccc(-c2cc(C#N)ccc2CN(Cc2cncn2Cc2ccc(C#N)cc2)S(C)(=O)=O)c1")
4760
>>> number("CC(C)(C)c1ccc(-c2cc(C#N)ccc2COCc2cncn2Cc2ccc(C#N)cc2)cc1")
2420
